Molecular target: T1, PUF4 RNA-binding domain (Saccharomyces cerevisiae, UniProt P25339 537-888)
T1 sequence: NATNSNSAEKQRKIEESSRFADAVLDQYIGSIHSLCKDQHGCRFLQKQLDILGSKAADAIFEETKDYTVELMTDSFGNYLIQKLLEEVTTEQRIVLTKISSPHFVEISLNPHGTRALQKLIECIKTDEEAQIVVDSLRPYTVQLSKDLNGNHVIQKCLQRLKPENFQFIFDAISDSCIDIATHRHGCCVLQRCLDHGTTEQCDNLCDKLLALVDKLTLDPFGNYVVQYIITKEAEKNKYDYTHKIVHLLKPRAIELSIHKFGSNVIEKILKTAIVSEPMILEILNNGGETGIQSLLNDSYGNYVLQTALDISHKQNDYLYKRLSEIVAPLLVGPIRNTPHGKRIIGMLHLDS
Experiment: Mg; RNA-MaP; 20 mM Na-HEPES pH 7.4, 30 mM KOAc, 0.75 mM MgCl2, 0.1% Tween-20, 5% glycerol, 0.1 mg/mL BSA, 2 mM DTT; 25 C; 0.0125-409.6 nM protein
Details: tags: N-His6-TEV cleaved; C-SNAP kept, Cy3B-labelled; label: tethered on chip by stalled RNA polymerase
pKd: −log10 of the molar value.
Classify as follows. Reported pKd greater than or equal to 8: 1. Reported pKd below: -1.

Quick check: does Ic_S2_P3E.1_K3.1_C3.1_H3.1_A3.1_[T5G]_[A6T]_F3.1_[T7A]_[A8T]_T3.1 (ssRNA) RNA: UUUGAUUAAUAUGAUAUCGUUCUUUCUUGUAGUAUUUCUUUCUCGAUAUCAUAUUAAUCUUU have pKd greater than or equal to 8?
-1

Would you say UCUCUUCUCUAUAUAUAUAUCUCUU (ssRNA) [Id_i_S1_P3E.6_K3.2_C3.3_[T-3C]_[C-2T]_[T-1C]_H3.2_A3.1_F3.1_T3.2] shows pKd at minimum 8?
-1

Identify whether the reported pKd of the following binder is 8 or greater: Id_ii_S4_P5E.4_K5.3_C5.2_[C-2T]_H5.3_A5.1_F5.1_T5.2_[A12T] (ssRNA) RNA: UUUGACAACUGAUCGUUCUUUCUUUACACUUAUUAUUUUCUUUCUCGAUCAGUUGUCUUU
-1

Assess whether reported pKd for UCUCUUUGUAUAUAUUAACUCUCUU (ssRNA) [Id_ii_S1_P4E.3_K4.2_C4.2_[C-2T]_[T-1G]_H4.2_A4.1_F4.1_T4.2_[G10A]_[T11C]] sits at 8 or higher.
1

# check: pKd of Id_ii_S2_P5E.3_K5.2_C5.2_[T-1A]_H5.2_A5.1_F5.1_T5.2_[A12C] (ssRNA) RNA: UUUGAUUAAUAUGAUAUCGUUCUUUCUCAUAUAUUAUUAUCUUCUUUCUCGAUAUCAUAUUAAUCUUU is greater than or equal to 8
-1

Next:
Is the recorded value of pKd equal to or greater than 8 for this binder? Ie_S4_P5E.1_K5.1_C5.1_H5.1_[+4CTT]_A5.1_F5.1_T5.1 (ssRNA) RNA: UUUGACAACUGAUCGUUCUUUCUUGUACUUUUAUUAUUCUUUCUCGAUCAGUUGUCUUU
1

Please check the record ACAAACUCCAUAUUAACAAAC (ssRNA) [Ib_S3_P4E.1_K4.1_C4.1_H4.1_[G2C]_[T3C]_A4.1_F4.1_T4.1] and state if its pKd is at or above 8.
-1

Say whether UCUCUUUGUAUCCCGUCUCUU (ssRNA) [Ic_S1_P4E.1_K4.1_C4.1_H4.1_A4.1_[A6C]_[T7C]_F4.1_[T8C]_[A9G]_T4.1] shows pKd of 8 or more.
-1

Hello, I need to know if Ic_S2_P5E.1_K5.1_C5.1_H5.1_A5.1_[T6C]_[A7T]_F5.1_[T8A]_[T9G]_[A10C]_T5.1 (ssRNA) RNA: UUUGAUUAAUAUGAUAUCGUUCUUUCUUGUAUCUAGCUUCUUUCUCGAUAUCAUAUUAAUCUUU has measured pKd not below 8. Thanks!
-1

Kindly determine if pKd recorded for Ie_S2_P5E.1_K5.1_C5.1_H5.1_[+2CT]_A5.1_F5.1_T5.1 (ssRNA) RNA: UUUGAUUAAUAUGAUAUCGUUCUUUCUUGCUUAUUAUUAUUCUUUCUCGAUAUCAUAUUAAUCUUU is above or exactly 8.
-1
